target-under-test: ATP5B protein (Homo sapiens, UniProt P06576)
Sequence (P06576 48-529, species assumed): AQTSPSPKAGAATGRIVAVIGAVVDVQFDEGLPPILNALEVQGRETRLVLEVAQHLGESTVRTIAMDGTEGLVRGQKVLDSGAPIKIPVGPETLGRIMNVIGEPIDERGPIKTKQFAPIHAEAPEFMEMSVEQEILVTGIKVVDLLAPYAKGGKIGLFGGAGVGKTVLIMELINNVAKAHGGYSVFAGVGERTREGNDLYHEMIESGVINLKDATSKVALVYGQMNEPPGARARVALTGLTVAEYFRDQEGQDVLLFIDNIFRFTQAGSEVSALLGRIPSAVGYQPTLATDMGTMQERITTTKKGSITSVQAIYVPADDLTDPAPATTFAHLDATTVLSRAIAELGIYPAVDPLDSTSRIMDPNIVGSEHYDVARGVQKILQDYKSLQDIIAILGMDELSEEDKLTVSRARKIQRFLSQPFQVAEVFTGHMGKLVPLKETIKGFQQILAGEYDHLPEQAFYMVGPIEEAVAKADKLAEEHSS
procedure-summary: SPR binding ability test
condition-details: ATP5B on CM5 chip, flow rate 50 μl/min, relative to control shortened sequence (SEQ ID NO: 12)
Recorded Binding (%) for the following substances
# unit: % | format: bare number

# substance, quantity-name, val
data = [
    ("SEQ ID NO: 38: Shortened substance (8-35) amino acid Ala substituted (34) VDRGAGSIREAGGAFGKREQAEEERYAR", "Binding (%)", 92.1),
]

// query For ATP5B protein (Homo sapiens, UniProt P06576), provide Binding (%) of SEQ ID NO: 32: Shortened substance (8-35) amino acid Ala substituted (27) VDRGAGSIREAGGAFGKREAAEEERYFR please.
// result 89.5

// query For ATP5B protein (Homo sapiens, UniProt P06576), provide Binding (%) of SEQ ID NO: 25: Shortened substance (8-35) amino acid Ala substituted (19) VDRGAGSIREAAGAFGKREQAEEERYFR please.
// result 89.6

// query For ATP5B protein (Homo sapiens, UniProt P06576), provide Binding (%) of SEQ ID NO: 24: Shortened substance (8-35) amino acid Ala substituted (17) VDRGAGSIRAAGGAFGKREQAEEERYFR please.
// result 168.7

// query For ATP5B protein (Homo sapiens, UniProt P06576), provide Binding (%) of SEQ ID NO: 37: Shortened substance (8-35) amino acid Ala substituted (33) VDRGAGSIREAGGAFGKREQAEEERAFR please.
// result 145.8

// query For ATP5B protein (Homo sapiens, UniProt P06576), provide Binding (%) of SEQ ID NO: 22: Shortened substance (8-35) amino acid Ala substituted (15) VDRGAGSAREAGGAFGKREQAEEERYFR please.
// result 99.3

----------
target-under-test: ATP5B protein (Homo sapiens, UniProt P06576)
procedure-summary: SPR binding ability test
condition-details: ATP5B on CM5 chip, flow rate 50 μl/min, relative to control shortened sequence (SEQ ID NO: 12)
Recorded Binding (%) for the following substances
# unit: % | format: bare number

Study these solved cases before continuing.
# substance, Binding (%)
records = [
    ("SEQ ID NO: 16: Shortened substance (8-35) amino acid Ala substituted (8) ADRGAGSIREAGGAFGKREQAEEERYFR", 101.4),
    ("SEQ ID NO: 28: Shortened substance (8-35) amino acid Ala substituted (23) VDRGAGSIREAGGAFAKREQAEEERYFR", 102.3),
]

// query Fill in the blank: the reported Binding (%) of SEQ ID NO: 17: Shortened substance (8-35) amino acid Ala substituted (9) VARGAGSIREAGGAFGKREQAEEERYFR is ____.
// result 91.6

// query Fill in the blank: the reported Binding (%) of SEQ ID NO: 21: Shortened substance (8-35) amino acid Ala substituted (14) VDRGAGAIREAGGAFGKREQAEEERYFR is ____.
// result 98.8

// query Fill in the blank: the reported Binding (%) of SEQ ID NO: 29: Shortened substance (8-35) amino acid Ala substituted (24) VDRGAGSIREAGGAFGAREQAEEERYFR is ____.
// result 100.5

// query Fill in the blank: the reported Binding (%) of SEQ ID NO: 20: Shortened substance (8-35) amino acid Ala substituted (13) VDRGAASIREAGGAFGKREQAEEERYFR is ____.
// result 98.5

----------
target-under-test: ATP5B protein (Homo sapiens)
procedure-summary: SPR binding ability test
condition-details: ATP5B on CM5 chip, flow rate 50 μl/min, relative to control shortened sequence (SEQ ID NO: 12)
Recorded Binding (%) for the following substances
# unit: % | format: bare number

Study these solved cases before continuing.
# substance, endpoint-unit, val
records = [
    ("SEQ ID NO: 12: Synthetic peptide: Shortened substance (8-35) VDRGAGSIREAGGAFGKREQAEEERYFR (listed as Homo sapiens)", "%", 100.0),
    ("SEQ ID NO: 18: Shortened substance (8-35) amino acid Ala substituted (10) VDAGAGSIREAGGAFGKREQAEEERYFR", "%", 104.2),
    ("SEQ ID NO: 27: Shortened substance (8-35) amino acid Ala substituted (22) VDRGAGSIREAGGAAGKREQAEEERYFR", "%", 94.0),
    ("SEQ ID NO: 30: Shortened substance (8-35) amino acid Ala substituted (25) VDRGAGSIREAGGAFGKAEQAEEERYFR", "%", 85.2),
    ("SEQ ID NO: 23: Shortened substance (8-35) amino acid Ala substituted (16) VDRGAGSIAEAGGAFGKREQAEEERYFR", "%", 97.0),
]

// query Fill in the blank: the reported Binding (%) of SEQ ID NO: 34: Shortened substance (8-35) amino acid Ala substituted (30) VDRGAGSIREAGGAFGKREQAEAERYFR is ____.
// result 94.0

// query Fill in the blank: the reported Binding (%) of SEQ ID NO: 36: Shortened substance (8-35) amino acid Ala substituted (32) VDRGAGSIREAGGAFGKREQAEEEAYFR is ____.
// result 426.0

----------
target-under-test: ATP5B protein (Homo sapiens)
procedure-summary: SPR binding ability test
condition-details: ATP5B on CM5 chip, flow rate 50 μl/min, relative to control shortened sequence (SEQ ID NO: 12)
quantity-name: Binding (%)
# unit: % | format: bare number

Study these solved cases before continuing.
# substance, Binding (%)
data = [
    ("SEQ ID NO: 33: Shortened substance (8-35) amino acid Ala substituted (29) VDRGAGSIREAGGAFGKREQAAEERYFR", 96.7),
    ("SEQ ID NO: 35: Shortened substance (8-35) amino acid Ala substituted (31) VDRGAGSIREAGGAFGKREQAEEARYFR", 157.9),
    ("SEQ ID NO: 26: Shortened substance (8-35) amino acid Ala substituted (20) VDRGAGSIREAGAAFGKREQAEEERYFR", 68.0),
    ("SEQ ID NO: 19: Shortened substance (8-35) amino acid Ala substituted (11) VDRAAGSIREAGGAFGKREQAEEERYFR", 100.0),
    ("SEQ ID NO: 31: Shortened substance (8-35) amino acid Ala substituted (26) VDRGAGSIREAGGAFGKRAQAEEERYFR", 94.1),
]

// query For ATP5B protein (Homo sapiens), provide Binding (%) of SEQ ID NO: 39: Shortened substance (8-35) amino acid Ala substituted (35) VDRGAGSIREAGGAFGKREQAEEERYFA please.
// result 109.6
